Values were extracted from ChEMBL document CHEMBL5620385.

assaySummary: Metabolic stability in mouse liver microsomes assessed as drug metabolism at 10 uM measured after 30 mins in presence of NADPH by HPLC analysis
Format: ADME, Microsome
conditionParameters: read-out: Drug metabolism
readoutName: metabolised at 0.5 h, 10 µM

**Q:** So what does the record say about metabolised at 0.5 h, 10 µM for COc1cc(O)c2c(=O)cc(/C=C/c3c(F)cccc3Cl)oc2c1[C@H]1CC[N+](C)([O-])C[C@H]1O (stereo partly specified) ?
**A:** 16%

====

System: MIA PaCa-2
assaySummary: Antiproliferative activity against human MIA PaCa-2 cells assessed as cell growth inhibition at 10 uM incubated for 48 hrs by MTT assay relative to control
Type: functional
Hi there, I'd appreciate the recorded inhibition at 10 µM for every entry that follows.
Give bare numbers, in %.

Known results for compounds:
* COc1cc(O)c2c(=O)cc(/C=C/c3c(F)ccc(F)c3Cl)oc2c1[C@H]1CC[N+](C)([O-])C[C@H]1O (some centres not stated) | 36.4
* COc1cc(O)c2c(=O)cc(/C=C/c3c(F)cccc3Cl)oc2c1[C@H]1CC[N+](C)([O-])C[C@H]1O (some centres not stated) | 24.9

Parameter requested: inhibition at 10 µM. Apply to each item below.
1. C[N+]1([O-])CC[C@H](c2c(O)cc(O)c3c(=O)cc(/C=C/c4cccc(Cl)c4)oc23)[C@H](O)C1 (some centres not stated)
2. C[N+]1([O-])CC[C@H](c2c(O)cc(O)c3c(=O)cc(/C=C/c4ccccc4Cl)oc23)[C@H](O)C1 (some centres not stated)

**A:**
36.3
56.3

====

systemUnderTest: Cyclin-dependent kinase 7/ cyclin H (Homo sapiens) (UniProt P51946+P50613)
assaySummary: Inhibition of CDK7/cyclin H (unknown origin) at 10 uM by ADP-Glo assay relative to control
Assay type: protein-complex assay
# thresholds on inhibition define classes: lo: < 40%; mid: ≥ 40% and < 50%; hi: ≥ 50%

Worked cases, answers included:
- C[N+]1([O-])CC[C@H](c2c(O)cc(O)c3c(=O)cc(/C=C/c4ccccc4)oc23)[C@H](O)C1 (stereo partly specified): mid
- COc1cc(O)c2c(=O)cc(/C=C/c3ccc(F)c(Cl)c3)oc2c1[C@H]1CC[N+](C)([O-])C[C@H]1O (stereo partly specified): hi

**Q:** Hello team, could you let me know which band the following compound falls into: C[N+]1([O-])CC[C@H](c2c(O)cc(O)c3c(=O)cc(/C=C/c4c(Cl)cccc4Cl)oc23)[C@H](O)C1 (stereo partly specified)
**A:** mid

**Q:** Hello team, could you let me know which band the following compound falls into: C[N+]1([O-])CC[C@H](c2c(O)cc(O)c3c(=O)cc(/C=C/c4ccccc4Cl)oc23)[C@H](O)C1 (stereo partly specified)
**A:** hi

**Q:** Hello team, could you let me know which band the following compound falls into: C[N+]1([O-])CC[C@H](c2c(O)cc(O)c3c(=O)cc(/C=C/c4cc(Cl)cc(Cl)c4)oc23)[C@H](O)C1 (stereo partly specified)
**A:** lo

**Q:** Hello team, could you let me know which band the following compound falls into: Cc1cc(=O)c2c(O)cc(O)c([C@H]3CC[N+](C)([O-])C[C@H]3O)c2o1 (stereo partly specified)
**A:** lo

**Q:** Hello team, could you let me know which band the following compound falls into: C[N+]1([O-])CC[C@H](c2c(O)cc(O)c3c(=O)cc(/C=C/c4ccc(Cl)cc4Br)oc23)[C@H](O)C1 (stereo partly specified)
**A:** hi

**Q:** Hello team, could you let me know which band the following compound falls into: C[N+]1([O-])CC[C@H](c2c(O)cc(O)c3c(=O)cc(/C=C/c4ccc(Cl)cc4)oc23)[C@H](O)C1 (stereo partly specified)
**A:** lo

**Q:** Hello team, could you let me know which band the following compound falls into: COc1cc(O)c2c(=O)cc(/C=C/c3c(F)cccc3Cl)oc2c1[C@H]1CC[N+](C)([O-])C[C@H]1O (stereo partly specified)
**A:** lo

**Q:** Hello team, could you let me know which band the following compound falls into: "CN1CC[C@H](c2c(O)cc(O)c3c(=O)cc(/C=C/c4c(Cl)cccc4Cl)oc23)[C@H](O)C1"
**A:** hi

**Q:** Hello team, could you let me know which band the following compound falls into: C[N+]1([O-])CC[C@H](c2c(O)cc(O)c3c(=O)cc(/C=C/c4ccccc4F)oc23)[C@H](O)C1 (stereo partly specified)
**A:** lo

====

Tested on: MIA PaCa-2
assaySummary: Antiproliferative activity against human MIA PaCa-2 cells assessed as cell growth inhibition at 10 uM incubated for 48 hrs by MTT assay relative to control
Assay type: functional
Hi there, I'd appreciate the recorded inhibition at 10 µM for every entry that follows.
Numbers only, in %.

Parameter requested: inhibition at 10 µM. Apply to each item below.
1. C[N+]1([O-])CC[C@H](c2c(O)cc(O)c3c(=O)cc(/C=C/c4ccccc4Br)oc23)[C@H](O)C1 (some centres undefined)
2. CCOc1cc(O)c2c(=O)cc(/C=C/c3c(F)cccc3Cl)oc2c1[C@H]1CC[N+](C)([O-])C[C@H]1O (some centres undefined)
3. COc1cc(O)c2c(=O)cc(/C=C/c3ccc(F)c(Cl)c3)oc2c1[C@H]1CC[N+](C)([O-])C[C@H]1O (some centres undefined)
4. C[N+]1([O-])CC[C@H](c2c(O)cc(O)c3c(=O)cc(/C=C/c4ccccc4F)oc23)[C@H](O)C1 (some centres undefined)

**A:**
1. 70.3
2. 52.8
3. 27.8
4. 31.8

====

Hi there, I'd appreciate the recorded GI50 at 48 h for every entry that follows.
assaySummary: Antiproliferative activity against HEK293 cells assessed as cell growth inhibition incubated for 48 hrs by MTT assay
Assay type: toxicity, cell-based
conditionParameters: human
Answers are plain numbers, in µM.

• COc1cc(O)c2c(=O)cc(/C=C/c3c(F)cccc3Cl)oc2c1[C@H]1CC[N+](C)([O-])C[C@H]1O (some centres undefined) = 81.5

Turning to the following molecule.
**Q:** So what does the record say about GI50 at 48 h for C[N+]1([O-])CC[C@H](c2c(O)cc(O)c3c(=O)cc(/C=C/c4ccccc4Cl)oc23)[C@H](O)C1 (some centres undefined) ?
**A:** 90.3

====

assaySummary: Clearance in BALB/c mouse at 5 mg/kg, iv measured for 6 hrs by LC-MS/MS analysis
Type: ADME, organism-based
conditionParameters: in vivo
readoutName: clearance (mL/min/kg)
Answers are plain numbers, in mL/min/kg.

**Q:** So what does the record say about clearance for COc1cc(O)c2c(=O)cc(/C=C/c3c(F)cccc3Cl)oc2c1[C@H]1CC[N+](C)([O-])C[C@H]1O (stereo partly specified) ?
**A:** 86.7

====

systemUnderTest: CDK9/Cyclin K (Homo sapiens)
Sequence (P50750 whole entry): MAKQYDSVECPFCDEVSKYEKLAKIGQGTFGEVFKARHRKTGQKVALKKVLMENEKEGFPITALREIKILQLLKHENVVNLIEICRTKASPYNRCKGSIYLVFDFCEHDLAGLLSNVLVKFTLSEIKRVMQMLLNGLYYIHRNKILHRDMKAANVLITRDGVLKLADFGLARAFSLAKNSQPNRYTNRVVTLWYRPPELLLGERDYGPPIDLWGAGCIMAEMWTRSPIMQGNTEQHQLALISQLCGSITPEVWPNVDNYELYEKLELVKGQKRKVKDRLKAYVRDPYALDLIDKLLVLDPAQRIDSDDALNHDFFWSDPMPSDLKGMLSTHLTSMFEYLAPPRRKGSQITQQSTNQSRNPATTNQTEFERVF
Sequence (O75909 whole entry, further chain): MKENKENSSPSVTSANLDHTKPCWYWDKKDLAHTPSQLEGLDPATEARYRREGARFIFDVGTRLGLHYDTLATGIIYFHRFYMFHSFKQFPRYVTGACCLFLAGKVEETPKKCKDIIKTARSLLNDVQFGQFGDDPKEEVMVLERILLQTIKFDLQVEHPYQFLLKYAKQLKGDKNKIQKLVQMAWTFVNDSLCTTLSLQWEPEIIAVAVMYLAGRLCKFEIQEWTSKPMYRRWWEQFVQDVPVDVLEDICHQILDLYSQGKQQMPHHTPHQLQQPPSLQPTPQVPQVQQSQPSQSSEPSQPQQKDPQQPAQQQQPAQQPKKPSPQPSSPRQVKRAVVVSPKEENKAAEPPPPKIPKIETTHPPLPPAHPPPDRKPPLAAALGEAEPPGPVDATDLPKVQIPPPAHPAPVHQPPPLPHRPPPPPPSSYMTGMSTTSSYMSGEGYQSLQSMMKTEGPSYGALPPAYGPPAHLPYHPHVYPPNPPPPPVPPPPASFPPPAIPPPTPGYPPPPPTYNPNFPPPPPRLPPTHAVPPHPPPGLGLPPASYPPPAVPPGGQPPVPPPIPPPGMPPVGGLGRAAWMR
assaySummary: Inhibition of CDK9/cyclin K (unknown origin) by ADP-Glo assay
readoutName: IC50 (µM)
Answers are plain numbers, in µM.

Known results for molecules:
• COc1cc(O)c2c(=O)cc(/C=C/c3c(F)cccc3Cl)oc2c1[C@H]1CC[N+](C)([O-])C[C@H]1O (stereo not given in full) = 2.28
• C[N+]1([O-])CC[C@H](c2c(O)cc(O)c3c(=O)cc(/C=C/c4ccccc4Cl)oc23)[C@H](O)C1 (stereo not given in full) = 2.81
• C[N+]1([O-])CC[C@H](c2c(O)cc(O)c3c(=O)cc(/C=C/c4ccccc4Br)oc23)[C@H](O)C1 (stereo not given in full) = 2.41
• C[N+]1([O-])CC[C@H](c2c(O)cc(O)c3c(=O)cc(/C=C/c4c(Cl)cccc4Cl)oc23)[C@H](O)C1 (stereo not given in full) = 3.44
• C[N+]1([O-])CC[C@H](c2c(O)cc(O)c3c(=O)cc(/C=C/c4ccccc4F)oc23)[C@H](O)C1 (stereo not given in full) = 8.47

**Q:** So what does the record say about IC50 for "CN1CC[C@H](c2c(O)cc(O)c3c(=O)cc(/C=C/c4c(Cl)cccc4Cl)oc23)[C@H](O)C1" ?
**A:** 0.32

====

systemUnderTest: Cyclin-dependent kinase 7/ cyclin H (Homo sapiens) (UniProt P51946+P50613)
assaySummary: Inhibition of CDK7/cyclin H (unknown origin) at 10 uM by ADP-Glo assay relative to control
Type: protein-complex assay
readoutName: inhibition (%)
Give bare numbers, in %.

* CCOc1cc(O)c2c(=O)cc(/C=C/c3c(F)cccc3Cl)oc2c1[C@H]1CC[N+](C)([O-])C[C@H]1O (some centres undefined) | 37.4
* C[N+]1([O-])CC[C@H](c2c(O)cc(O)c3c(=O)cc(/C=C/c4ccccc4I)oc23)[C@H](O)C1 (some centres undefined) | 89.6
* COc1cc(O)c2c(=O)cc(/C=C/c3cccc(Cl)c3F)oc2c1[C@H]1CC[N+](C)([O-])C[C@H]1O (some centres undefined) | 47.5

**Q:** So what does the record say about inhibition for C[N+]1([O-])CC[C@H](c2c(O)cc(O)c3c(=O)cc(/C=C/c4cccc(Cl)c4)oc23)[C@H](O)C1 (some centres undefined) ?
**A:** 19.4
